test system: Bacillus subtilis; assay: cleaved RNA product abundance (RNA/gDNA barcode ratio) relative to median wild-type variant (ratio to wild type); higher = more accumulation of the downstream cleavage product; details: experiment (reporter, strain, medium): exp 2b: truncated aprE reporter, strain BJT200; cleavage site: cggR-gapA (positions -7 to +36 mutated)
readout kind: cleaved RNA product abundance
Note: the reply should be a number with no unit written.

Prompt: Notebook entry, Bacillus subtilis assay: cleaved RNA product abundance of `ACAGACGAAGGAGCCGCAAAGAAGTCATTAAGGGATGTATAATCCCTCAATATAAATATCTCTCACTTATTTAAA` = ?
Response: 0.16

Prompt: Checklist item: cleaved RNA product abundance tested on Bacillus subtilis, entry `ACAGACGAAGGAGCCGCAAATAAGTTATTAAGTGATGAATAATCCCTCAATATAAATATCTCTCACTTATTTAAA` , value?
Response: 0.109

Prompt: Record lookup: for Bacillus subtilis, what cleaved RNA product abundance belongs to `ACAGACGAAGGAGCCGCAAAGAAGTTATTAAGAGATGAATAATCCCTCCATATAAATATCTCTCACTTATTTAAA` ?
Response: 0.0792

Prompt: Form field - read-out: cleaved RNA product abundance; system: Bacillus subtilis; submitted item: `ACAGACGAAGGAGCCGCAAAGAAGTTATTAAAGGATGAATAATCCCTCAATATAAATAACTCTCACTTATTTAAA`
Response: 0.157

Prompt: Request: cleaved RNA product abundance, test system Bacillus subtilis, entry `ACAGACGAAGGAGCCGCAAAGAAGTTATTAAGGGATGAATAATCGCTCATTATAAATATCTCTCACTTATTTAAA`
Response: 0.0605

Prompt: # returns recorded cleaved RNA product abundance (system: Bacillus subtilis) for `ACAGACGAAGGAGCCGCAACGAAGTTATTAAGGGATGAATAATCCCTCAATATAAATATCTCTCACTTATTTAAA`
Response: 0.908

Prompt: Give Bacillus subtilis cleaved RNA product abundance for `ACAGACGAAGGAGCCGCAAAGAAGATATTACGGGATGAATAATCCCTCAATATAAATATCTCTCACTTATTTAAA`
Response: 0.409

====

test system: Bacillus subtilis; assay: cleaved RNA product abundance (RNA/gDNA barcode ratio) relative to median wild-type variant (ratio to wild type); higher = more accumulation of the downstream cleavage product; settings: experiment (reporter, strain, medium): exp 4a: truncated aprE reporter, strain BJT201 with 2% xylose (RNase J1 expressed); cleavage site: cggR-gapA (positions -7 to +36 mutated)
Decide by cleaved RNA product abundance: equal to or exceeding 0.2 means y, less means n.

Prompt: Is cleaved RNA product abundance for `ACAGACGAAGGAGCCGCAAAGAAGTAATTAAGGGATGAATCATCCCTCAATATAAATATCTCTCACTTATTTAAA` at or above 0.2?
Response: y

Prompt: Hello, I need to know if `ACAGACGAAGGAGCCGCAAAGAAGTTATTAAAGGATGAATAATCCATCAATATAAATATCTCTCACTTATTTAAA` has measured cleaved RNA product abundance not below 0.2. Thanks!
Response: n

Prompt: Identify whether the reported cleaved RNA product abundance of the following sequence is 0.2 or greater: `ACAGACGAAGGAGCCGCAAAGAAGTTATTATGGGATGAATAACCCCTCAATATAAATATCTCTCACTTATTTAAA`
Response: n

Prompt: Does the sequence `ACAGACGAAGGAGCCGCAAAGAAGTTATTAAGAGATGCATAATCCCTCAATATAAATATCTCTCACTTATTTAAA` have recorded cleaved RNA product abundance that is 0.2 or more?
Response: n

Prompt: Would you say `ACAGACGAAGGAGCCGCAAAGAAGCTATTAAGGGAAGAATAATCCCTCAATATAAATATCTCTCACTTATTTAAA` shows cleaved RNA product abundance at minimum 0.2?
Response: y

Prompt: Reported cleaved RNA product abundance at or above 0.2? `ACAGACGAAGGAGCCGCAAAGAAGTTATTAATGGATGAATAATCCCTCAATATAAATGTCTCTCACTTATTTAAA`
Response: n

Prompt: Check this sequence for cleaved RNA product abundance at or above 0.2: `ACAGACGAAGGAGCCGCAAAAAAGTTATTAAGGGATGAATAATCCCTCAATACAAATATCTCTCACTTATTTAAA`
Response: n

Prompt: Identify whether the reported cleaved RNA product abundance of the following sequence is 0.2 or greater: `ACAGACGAAGGAGCCGCACAGATGTTATTAAGGGATGAATAATCCCTCAATATAAATATCTCTCACTTATTTAAA`
Response: y

Prompt: Could you please find out whether `ACAGACGAAGGAGCCGCAAAGAAGTTATTAAAGGATGAATAAACCCTCAATATAAATATCTCTCACTTATTTAAA` has cleaved RNA product abundance that meets 0.2 or exceeds it?
Response: n

Prompt: // inclusive: cleaved RNA product abundance at least 0.2? input: `ACAGACGAAGGAGCCGCAAAGAAGTTATTAAGGGATGAATAAACCCTCAGTATAAATATCTCTCACTTATTTAAA`
Response: y

Prompt: Is the recorded value of cleaved RNA product abundance equal to or greater than 0.2 for this sequence? `ACAGACGAAGGAGCCGCAAAGAAGTTATTAAGGGATAAATAATCTCTCAATATAAATATCTCTCACTTATTTAAA`
Response: y

Prompt: Exam item: decide whether the reported cleaved RNA product abundance for `ACAGACGAAGGAGCCGCAAAGAACTTATTAATGGATGAATAATCCCTCAATATAAATATCTCTCACTTATTTAAA` is at least 0.2.
Response: n

Prompt: Please indicate if the recorded cleaved RNA product abundance for `ACAGACGAAGGAGCCGCAAACAAGTTATTAAGGGATGAATAATCCCTCTATATAAATATCTCTCACTTATTTAAA` meets or exceeds 0.2.
Response: y

Prompt: Textbook exercise: given the entry `ACAGACGAAGGAGCCGCAAAGAAGTTATTAAAGGGATGAATAATCCCTCAATATAAATATCTCTCACTTATTTAA` , state whether its cleaved RNA product abundance is greater than or equal to 0.2.
Response: y

====

Exercise: for every item that follows, state its recorded cleaved RNA product abundance.
test system: Bacillus subtilis; assay: cleaved RNA product abundance (RNA/gDNA barcode ratio) relative to median wild-type variant (ratio to wild type); higher = more accumulation of the downstream cleavage product; conditions: experiment (reporter, strain, medium): exp 8a: truncated aprE reporter, strain BJT201 with 2% xylose (RNase J1 expressed); cleavage site: glnRA (positions -5 to +31 mutated)
When you answer, write just the number.

Prompt: Need cleaved RNA product abundance, item `CGACATGTCCCGCTTCTTTCATTAATCCCTTAGCAACTGTTTTGCTATATAGATTTACCTTTTAAGAGGAGGAAT`
Response: 0.355

Prompt: Quick one: cleaved RNA product abundance for `CGACATGTCCCGCTTCTTTCATTAATCCGTTAGCAACTGTTTTGCTATATGTATTTACCTTTTAAGAGGAGGAAT` ?
Response: 0.45

Prompt: # query: cleaved RNA product abundance of entry `CGACATGTCCCGCTTCTTTCATTAATCCGATAGCAAATGTTTTGCTATATACATTTACCTTTTAAGAGGAGGAAT`
Response: 0.41

Prompt: Would you kindly share the measured cleaved RNA product abundance for `CGACATGTCCCGCTTCTTTCATTAATCCGTTAGCAACTGTTTTGCTATATACATTTAACGTTTAAGAGGAGGAAT` ?
Response: 1.13

Prompt: Param item = `CGACATGTCCCGCTTCTTTCATTAATCTGTTAGCAACTGTTCTGCTATATACATTTACCTTTTAAGAGGAGGAAT` ; retrieve measured cleaved RNA product abundance.
Response: 0.368

Prompt: Which cleaved RNA product abundance reading was recorded for the sequence `CGACATGTCCCGCTTCTTTCATTAATCCGTTAGCAACTGTTTTTCTAGATACATTTACCTTTTAAGAGGAGGAAT` ?
Response: 0.378

Prompt: Please report the recorded cleaved RNA product abundance for `CGACATGTCCCGCTTCTTTCATTAATCCGTTAGCAACTGTTTTGATATATAAATTTACCTTTTAAGAGGAGGAAT` .
Response: 0.397

====

system: Bacillus subtilis; test: cleaved RNA product abundance (RNA/gDNA barcode ratio) relative to median wild-type variant (ratio to wild type); higher = more accumulation of the downstream cleavage product; conditions: experiment (reporter, strain, medium): exp 4a: truncated aprE reporter, strain BJT201 with 2% xylose (RNase J1 expressed); cleavage site: cggR-gapA (positions -7 to +36 mutated)
Please provide measured cleaved RNA product abundance for the entries that follow.
Number only, no unit.

Prompt: Any idea what its cleaved RNA product abundance is? The sequence is `ACAGACGAAGGAGCCGCAAAGAAGTAATTAAGGGTTGAATAATCCCTCAATATAAATATCTCTCACTTATTTAAA`
Response: 0.162

Prompt: Param item = `ACAGACGAAGGAGCCGCAAAGAAGTAATTAAGGGATGAATAATCCCTCAATATAAACATCTCTCACTTATTTAAA` ; retrieve measured cleaved RNA product abundance.
Response: 0.264

Prompt: Any idea what its cleaved RNA product abundance is? The sequence is `ACAGACGAAGGAGCCGCAAAGAAGTTATTAAGCGATGAATAATCCCTCAATATAAATACCTCTCACTTATTTAAA`
Response: 0.118

Prompt: Tell me the measured cleaved RNA product abundance of `ACAGACGAAGGAGCCGCAAAGAAGTTATATAGGGATGAATAATCCCTCAATATAAATATCTCTCACTTATTTAAA` , please.
Response: 0.664

Prompt: // returns reported cleaved RNA product abundance for input `ACAGACGAAGGAGCCGCAAAGAAGTTATTAACGAATGAATAATCCCTCAATATAAATATCTCTCACTTATTTAAA`
Response: 0.0881

Prompt: Entry `ACAGACGAAGGAGCCGCAAAGCAGTTATTAAGGGATGAATATTCCCTCAATATAAATATCTCTCACTTATTTAAA` : reported cleaved RNA product abundance = ?
Response: 0.898

Prompt: Form field: reported cleaved RNA product abundance of `ACAGACGAAGGAGCCGCAAAGAAGTTATTAAGCGATGAATAATCCCACAATATAAATATCTCTCACTTATTTAAA`
Response: 0.0785

Prompt: I am curious: what cleaved RNA product abundance value has been reported for `ACAGACGAAGGAGCCGCAAAGAAGTTATTAAGGGATTAATAATCCCTCAAAATAAATATCTCTCACTTATTTAAA` ?
Response: 0.419

Prompt: Need cleaved RNA product abundance, item `ACAGACGAAGGAGCCGCAAAGAAGTTATTAAGGCATGAATAATCCCTCGATATAAATATCTCTCACTTATTTAAA`
Response: 0.0814

Prompt: Fill in the blank: the reported cleaved RNA product abundance of `ACAGACGAAGGAGCCGCAAAGAAGTTATTAAGGGATGAATAATCCCTCAAAATACATATCTCTCACTTATTTAAA` is ____.
Response: 0.3

Prompt: Could you share which cleaved RNA product abundance value was measured for `ACAGACGAAGGAGCCGCAAAGAAGCTATTAATGGATGAATAATCCCTCAATATAAATATCTCTCACTTATTTAAA` ?
Response: 0.123

Prompt: For `ACAGACGAAGGAGCCGCAAAGAAGTTATTAAGGGATGAATCTTCCCTCAATATAAATATCTCTCACTTATTTAAA` , what is its reported cleaved RNA product abundance?
Response: 1.05

Prompt: What value of cleaved RNA product abundance has been recorded for this entry: `ACAGACGAAGGAGCCGCAAAGAAGTTATTAAGGGATAAATAATCCCTCAGTATAAATATCTCTCACTTATTTAAA`
Response: 0.242

Prompt: Reported cleaved RNA product abundance for `ACAGACGAAGGAGCCGCAAAAAACTTATTAAGGGATGAATAATCCCTCAATATAAATATCTCTCACTTATTTAAA` : what is it?
Response: 0.479

Prompt: Any idea what its cleaved RNA product abundance is? The sequence is `ACAGACGAAGGAGCCGCAAAAAAGTTATTAAGGGATGAATAAACCCTCTATATAAATATCTCTCACTTATTTAAA`
Response: 0.22
